substrate: CC(=O)N[C@H]1[C@H](Oc2ccc3c(C)cc(=O)oc3c2)O[C@H](CO)[C@@H](O[C@@H]2O[C@H](CO)[C@@H](O)[C@H](O)[C@H]2NC(C)=O)[C@@H]1O; experiment: fluorogenic substrate hydrolysis, Michaelis-Menten non-linear fit; format: biochemical, Pseudoalteromonas aurantia; conditions: McIlvaine's buffer pH 5.0, substrate 0.01-0.6 mM, temperature not given for kinetics

{"Protein": "Chi23 (Pseudoalteromonas aurantia) (protein, pET22b NdeI/XhoI, His-tagged (C-terminal by primer design), E. coli BL21(DE3); monomer; forward primer encodes MSKTITYYNS, reverse primer encodes AQSLNS at the C-terminus) MSKTITYYNSGAVPLINASELPYDVVNLAFLSSSSNNPFNLVLSGAIAATESSFTTNTIEAIKVMQHKGQKVLISFGGGTMGSNAYRSLSEDTAKLADSLASFVKNNQLDGVDIDYEDTAAFTGQAGYDGAQFLISLTQELRKRLPSPDYIISHAPQPPYLEQGGYMAGYVEVVELVGQEIDWLNVQFYNNPPWSANPDQIVSSYLNYTKLPNMSPEKVIAGFPVTQNDAGSGYMPVQTIINEVIKPIQQQSSLGGIMNWQFSSDHNGDWIKAIAQSLNS", "Vmax": "0.0107 µmol/min/mg"}
